Listing of entries alongside the reported percentage of EdU-negative.
Tested on: MCF7;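 note: secreted proteins added to cultured cells, EdU pulse at the end, nuclei found by Hoechst imaging, EdU status from nuclear versus surrounding ring intensity ratio, PBS as neutral control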
Experimental details: percentage of EdU-negative (G0-arrested) nuclei per well, 72 h; higher = more G0 arrest
Condition info: protein concentration 0.0357143 µM; reference: sequence is the full UniProt precursor, the tested protein was the secreted form or ectodomain
Return type: number; implicit unit %.

Recorded percentage of EdU-negative, per entry:
MGKSASKQFHNEVLKAHNEYRQKHGVPPLKLCKNLNREAQQYSEALASTRILKHSPESSRGQCGENLAWASYDQTGKEVADRWYSEIKNYNFQQPGFTSGTGHFTAMVWKNTKKMGVGKASASDGSSFVVARYFPAGNVVNEGFFEENVLPPKK [Q9H4G4] ... 25.6
MKVSVAALSCLMLVAVLGSQAQFTNDAETELMMSKLPLENPVVLNSFHFAADCCTSYISQSIPCSLMKSYFETSSECSKPGVIFLTKKGRQVCAKPSGPGVQDCMKKLKPYSI ... 24.9
MTPPERLFLPRVCGTTLHLLLLGLLLVLLPGAQGLPGVGLTPSAAQTARQHPKMHLAHSTLKPAAHLIGDPSKQNSLLWRANTDRAFLQDGFSLSNNSLLVPTSGIYFVYSQVVFSGKAYSPKATSSPLYLAHEVQLFSSQYPFHVPLLSSQKMVYPGLQEPWLHSMYHGAAFQLTQGDQLSTHTDGIPHLVLSPSTVFFGAFAL ... 35.3

Consider the record given below.
input: Please give the measured percentage of EdU-negative for this sequence: MAPRGCIVAVFAIFCISRLLCSHGAPVAPMTPYLMLCQPHKRCGDKFYDPLQHCCYDDAVVPLARTQTCGNCTFRVCFEQCCPWTFMVKLINQNCDSARTSDDRLCRSVS [Q6UW32]
output: 24.2
